Could you please report measured switch fluorescence ratio for the items listed next?
- Tested on: ATP;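 note: ATP exposure 15 min at 22 °C before imaging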
- ASSAY_INFO: switch fluorescence ratio, 500 uM ATP over buffer (Cy3 cluster intensity, sum of 5 cycles each) (fold (ratio)); higher = stronger signal-on switching upon ATP binding; sequences stand for … in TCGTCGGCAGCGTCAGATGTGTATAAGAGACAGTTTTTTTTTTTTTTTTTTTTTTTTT…TC
- RECORDED_CONDITIONS: aptamer strand: ATP DNA aptamer (quencher-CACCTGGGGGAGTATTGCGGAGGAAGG + anchor), 100 nM annealed; ATP concentration: 500 uM
Please give only the number in your answer, with no unit.

[in] Query the reported switch fluorescence ratio for ATP; item: GAAGCCCAGG
[out] 3.38

[in] Query the reported switch fluorescence ratio for ATP; item: GGTGACCGTT
[out] 0.992

[in] Query the reported switch fluorescence ratio for ATP; item: CCATTAATAG
[out] 1.04

[in] Query the reported switch fluorescence ratio for ATP; item: GAGTAAGGTA
[out] 1.02

[in] Query the reported switch fluorescence ratio for ATP; item: TTAGTTTAGG
[out] 0.982

[in] Query the reported switch fluorescence ratio for ATP; item: GGGGACGCTG
[out] 0.98

[in] Query the reported switch fluorescence ratio for ATP; item: ATTGGGCAGC
[out] 1

[in] Query the reported switch fluorescence ratio for ATP; item: TAAGGTGAGG
[out] 1.04

[in] Query the reported switch fluorescence ratio for ATP; item: AGGGATCAGC
[out] 1

[in] Query the reported switch fluorescence ratio for ATP; item: AGTGGGCTAT
[out] 0.999

[in] Query the reported switch fluorescence ratio for ATP; item: CATAGGAGGC
[out] 1

[in] Query the reported switch fluorescence ratio for ATP; item: GGGCAGAGGC
[out] 1.06

[in] Query the reported switch fluorescence ratio for ATP; item: AGGCCGAGGG
[out] 0.985

[in] Query the reported switch fluorescence ratio for ATP; item: TGAAAGATTT
[out] 1

[in] Query the reported switch fluorescence ratio for ATP; item: GTGTTACGTT
[out] 1.02

[in] Query the reported switch fluorescence ratio for ATP; item: CATTTTGATG
[out] 0.966

[in] Query the reported switch fluorescence ratio for ATP; item: AAATTAAATC
[out] 0.993

[in] Query the reported switch fluorescence ratio for ATP; item: TGAAAATGGT
[out] 0.996

[in] Query the reported switch fluorescence ratio for ATP; item: GAGGGTTTGT
[out] 0.973

[in] Query the reported switch fluorescence ratio for ATP; item: TACATATGTC
[out] 1.04

[in] Query the reported switch fluorescence ratio for ATP; item: ATTATACAGC
[out] 0.993

[in] Query the reported switch fluorescence ratio for ATP; item: AGTCTGAAGG
[out] 0.995

[in] Query the reported switch fluorescence ratio for ATP; item: TTTGGTGTTG
[out] 0.987

[in] Query the reported switch fluorescence ratio for ATP; item: TAAGGGTGCC
[out] 1.01

[in] Query the reported switch fluorescence ratio for ATP; item: TTGGGTTGGT
[out] 1.01

[in] Query the reported switch fluorescence ratio for ATP; item: AGGGGTGTTG
[out] 0.991

[in] Query the reported switch fluorescence ratio for ATP; item: GGATGGACTG
[out] 0.937

[in] Query the reported switch fluorescence ratio for ATP; item: TTTAGATAAT
[out] 1

[in] Query the reported switch fluorescence ratio for ATP; item: GAAGATGGGG
[out] 1.01

[in] Query the reported switch fluorescence ratio for ATP; item: ATTTGCATGG
[out] 1.09

[in] Query the reported switch fluorescence ratio for ATP; item: TTCATGGGGT
[out] 1.04

[in] Query the reported switch fluorescence ratio for ATP; item: TCAGTGAAAC
[out] 0.988

[in] Query the reported switch fluorescence ratio for ATP; item: CCTTATCAGG
[out] 1.04

[in] Query the reported switch fluorescence ratio for ATP; item: GAAAATTGAG
[out] 1

[in] Query the reported switch fluorescence ratio for ATP; item: ATCTTGATTG
[out] 1.03

[in] Query the reported switch fluorescence ratio for ATP; item: CGGAAAGCG
[out] 1

[in] Query the reported switch fluorescence ratio for ATP; item: CTGGGTTATT
[out] 0.977

[in] Query the reported switch fluorescence ratio for ATP; item: ATTAAAAGA
[out] 1.01

[in] Query the reported switch fluorescence ratio for ATP; item: CCAGTGTGTG
[out] 1.09

[in] Query the reported switch fluorescence ratio for ATP; item: CCAGGTAGG
[out] 1.24

[in] Query the reported switch fluorescence ratio for ATP; item: GCTATATAGT
[out] 1.01

[in] Query the reported switch fluorescence ratio for ATP; item: ACGTTGTTTG
[out] 0.983

[in] Query the reported switch fluorescence ratio for ATP; item: AGGTGGGTGG
[out] 1.02

[in] Query the reported switch fluorescence ratio for ATP; item: TTTAAGGGTT
[out] 1.02

[in] Query the reported switch fluorescence ratio for ATP; item: GGATTGGGCA
[out] 1.01

[in] Query the reported switch fluorescence ratio for ATP; item: GCCTGCGGGG
[out] 1.04

[in] Query the reported switch fluorescence ratio for ATP; item: CAAATTGGTG
[out] 1.08

[in] Query the reported switch fluorescence ratio for ATP; item: TGCCGGGGTT
[out] 1.1

[in] Query the reported switch fluorescence ratio for ATP; item: ATTTGAGGGG
[out] 0.998

[in] Query the reported switch fluorescence ratio for ATP; item: ACGGGGCCGT
[out] 0.985

[in] Query the reported switch fluorescence ratio for ATP; item: GTTGGACAGC
[out] 1.01

[in] Query the reported switch fluorescence ratio for ATP; item: TACAAATGTT
[out] 1

[in] Query the reported switch fluorescence ratio for ATP; item: AAGAAGGAGC
[out] 0.974

[in] Query the reported switch fluorescence ratio for ATP; item: AGGGCAGGGC
[out] 0.917

[in] Query the reported switch fluorescence ratio for ATP; item: CAGAGGGGCG
[out] 1.04

[in] Query the reported switch fluorescence ratio for ATP; item: AGTTTTGTTT
[out] 1.01

[in] Query the reported switch fluorescence ratio for ATP; item: TCGATGGCAG
[out] 1.06

[in] Query the reported switch fluorescence ratio for ATP; item: ATGGGATTAA
[out] 1.03

[in] Query the reported switch fluorescence ratio for ATP; item: ACGTACCGGC
[out] 1.31

[in] Query the reported switch fluorescence ratio for ATP; item: AGAGGTATCG
[out] 0.995

[in] Query the reported switch fluorescence ratio for ATP; item: TATTTTTTAT
[out] 1.02

[in] Query the reported switch fluorescence ratio for ATP; item: GAGGGGTGCG
[out] 1.01

[in] Query the reported switch fluorescence ratio for ATP; item: GGGGGTCTTT
[out] 0.99

[in] Query the reported switch fluorescence ratio for ATP; item: TTCTTAAAAA
[out] 0.993

[in] Query the reported switch fluorescence ratio for ATP; item: TTTCAATAGT
[out] 1.09

[in] Query the reported switch fluorescence ratio for ATP; item: AGAGAAGATG
[out] 1.01

[in] Query the reported switch fluorescence ratio for ATP; item: ATTAAAATAC
[out] 1.09

[in] Query the reported switch fluorescence ratio for ATP; item: TTTCAAAAAT
[out] 1.01

[in] Query the reported switch fluorescence ratio for ATP; item: AGGGAACGAC
[out] 1.03

[in] Query the reported switch fluorescence ratio for ATP; item: GGTTCTGGCC
[out] 0.996

[in] Query the reported switch fluorescence ratio for ATP; item: GCTTGGACGG
[out] 1.02

[in] Query the reported switch fluorescence ratio for ATP; item: GGGCTAGGGA
[out] 0.972

[in] Query the reported switch fluorescence ratio for ATP; item: ATGCAGGATT
[out] 0.981

[in] Query the reported switch fluorescence ratio for ATP; item: CGCCGCACTT
[out] 3.93

[in] Query the reported switch fluorescence ratio for ATP; item: ACTTGTGCTT
[out] 0.973

[in] Query the reported switch fluorescence ratio for ATP; item: CTTTAAGGGC
[out] 0.986

[in] Query the reported switch fluorescence ratio for ATP; item: GTTGCGCGTC
[out] 1.03

[in] Query the reported switch fluorescence ratio for ATP; item: TCAAGCCGAG
[out] 1.08

[in] Query the reported switch fluorescence ratio for ATP; item: TGTGTGTGTG
[out] 0.974
